# Test system: IGROV-ET
# Test: SRB colorimetric assay of cell growth and viability, IGROV-ET
# Format: cell-based, human
# Condition Parameters: 48 hours exposure
Measured Metric: GI50 (nM)
Write the number in nM without appending the unit.

A selection of reference data follows.
C/C=C1\NC(=O)[C@H](Cc2ccccc2)NC(=O)[C@@H](C(C)C)NC(=O)[C@@H]([C@@H](C)CC)NC(=O)[C@H](NC(=O)[C@H](NC(=O)[C@H](CCCCN)NC(=O)[C@H]2CCCN2C(=O)[C@H](NC(=O)[C@@H](NC(=O)[C@@H](NC(=O)[C@H](NC(=O)CCCC(C)C)C(C)C)[C@@H](C)O)C(C)C)C(C)C)[C@@H](C)CC)[C@@H](C)OC(=O)[C@H](C(C)C)NC1=O [Compound 5, [Lys^8]-KF]	240
C/C=C1\NC(=O)[C@H](Cc2ccccc2)NC(=O)[C@@H](C(C)C)NC(=O)[C@@H]([C@@H](C)CC)NC(=O)[C@H](NC(=O)[C@H](NC(=O)[C@H](CCCN)NC(=O)[C@H]2CCCN2C(=O)[C@H](NC(=O)[C@@H](NC(=O)[C@@H](NC(=O)[C@@H](CCC(=O)O)NC(=O)CCCC(C)C)[C@@H](C)O)C(C)C)C(C)C)[C@@H](C)CC)[C@@H](C)OC(=O)[C@H](C(C)C)NC1=O [Compound 39, [D-Glu^13]-KF]	1290

Turning to the following molecule.
q: Any idea what its GI50 is? The molecule is C/C=C1\NC(=O)[C@H](Cc2ccccc2)NC(=O)[C@@H](C(C)C)NC(=O)[C@@H](C(C)CC)NC(=O)[C@H](NC(=O)[C@H](NC(=O)[C@H](CCCN)NC(=O)[C@H]2CCCN2C(=O)[C@H](NC(=O)[C@@H](NC(=O)[C@@H](NC(=O)[C@H](NC(=O)CCC(C)CC)C(C)C)C(C)O)C(C)C)C(C)C)C(C)CC)C(C)OC(=O)[C@H](C(C)C)NC1=O (stereo partly drawn)
a: 135

###

# System: LoVo
# Test: SRB colorimetric assay of cell growth and viability, LoVo
# Type: cell-based, human
# Condition Parameters: 48 hours exposure
GI50 overview

C/C=C1\NC(=O)[C@H](Cc2ccccc2)NC(=O)[C@@H](C(C)C)NC(=O)[C@@H]([C@@H](C)CC)NC(=O)[C@H](NC(=O)[C@H](NC(=O)[C@H](CCCN)NC(=O)[C@H]2CCCN2C(=O)[C@H](NC(=O)[C@H](NC(=O)[C@@H](NC(=O)[C@H](NC(=O)CCCC(C)C)C(C)C)[C@@H](C)O)C(C)C)C(C)C)[C@@H](C)CC)[C@@H](C)OC(=O)[C@H](C(C)C)NC1=O [Compound 46, [D-Val^11]-KF]	1200 nM

# input for lookup
q: // query GI50 value for entry C/C=C1\NC(=O)[C@H](Cc2ccccc2)NC(=O)[C@@H](C(C)C)NC(=O)[C@@H]([C@@H](C)CC)NC(=O)[C@H](NC(=O)[C@H](NC(=O)[C@H](CCCN)NC(=O)[C@H]2CCCN2C(=O)[C@H](NC(=O)[C@@H](NC(=O)[C@@H](NC(=O)[C@H]2CCCN2C(=O)CCCC(C)C)[C@@H](C)O)C(C)C)C(C)C)[C@@H](C)CC)[C@@H](C)OC(=O)[C@H](C(C)C)NC1=O [Compound 37, [D-Pro^13]-KF]
a: 114 nM

###

Entries annotated with measured CC50
# Test system: HT-29
# Test: SRB colorimetric assay of cell growth and viability, HT-29
# Type: cell-based, human
# Condition Parameters: 48 hours exposure; read-out: LC50 HT-29
Where a SMILES comes first, the peptide text is derived from it. Bridges are numbered along the chain shown (N, C = ends). [ ]: non-standard residue; d: D form. The star is where a group is joined. d(aIle) = CC[C@H](C)[C@@H](N)C(=O)O; d(aThr) = C[C@@H](O)[C@@H](N)C(=O)O; Hexanoyl(5-Me) = CC(C)CCCC(=O)*; Orn = NCCC[C@H](N)C(=O)O; Dhb = C/C=C(\N)C(=O)O
Record the value in nM, omitting the unit from your answer.

C/C=C1\NC(=O)[C@H](Cc2ccccc2)NC(=O)[C@@H](C(C)C)NC(=O)[C@@H]([C@@H](C)CC)NC(=O)[C@H](NC(=O)[C@H](NC(=O)[C@H](CCCN)NC(=O)[C@H]2CCCN2C(=O)[C@H](NC(=O)[C@H](Cc2ccccc2)NC(=O)[C@@H](NC(=O)[C@H](NC(=O)CCCC(C)C)C(C)C)[C@@H](C)O)C(C)C)[C@@H](C)CC)[C@@H](C)OC(=O)[C@H](C(C)C)NC1=O [Compound 43, [Phe^11]-KF] ({Hexanoyl(5-Me)}-[dV]TF[dV][dP][Orn][d(aIle)][d(aThr)][d(aIle)][dV]F[Dhb]V; ester 8-C)	531

# ---- query compound ----
q: Request the reported CC50 associated with C/C=C1\NC(=O)[C@H](Cc2ccccc2)NC(=O)[C@@H](C(C)C)NC(=O)[C@@H]([C@@H](C)CC)NC(=O)[C@H](NC(=O)[C@H](NC(=O)[C@H](CCCN)NC(=O)[C@H]2CCCN2C(=O)[C@H](NC(=O)[C@@H](NC(=O)[C@@H](NC(=O)[C@H](NC(=O)Cc2ccc(C(F)(F)F)cc2)C(C)C)[C@@H](C)O)C(C)C)C(C)C)[C@@H](C)CC)[C@@H](C)OC(=O)[C@H](C(C)C)NC1=O [Compound 25, [p-CF3PhAc^14]-KF]
a: 3320

###

# Test system: IGROV-1
# Test: SRB colorimetric assay of cell growth and viability, IGROV-1
# Type: cell-based, human
# Condition Parameters: 48 hours exposure
Where a SMILES comes first, the peptide text is derived from it. Bridges are numbered along the chain shown (N, C = ends). [ ]: non-standard residue; d: D form. The star is where a group is joined. d(aIle) = CC[C@H](C)[C@@H](N)C(=O)O; d(aThr) = C[C@@H](O)[C@@H](N)C(=O)O; Hexanoyl(5-Me) = CC(C)CCCC(=O)*; Orn = NCCC[C@H](N)C(=O)O; Dhb = C/C=C(\N)C(=O)O
Measured Metric: LC50 (concentration causing 50% net cell killing) (µM)
State the answer as a number, implicitly in µM.

C/C=C1\NC(=O)[C@H](Cc2ccccc2)NC(=O)[C@@H](C(C)C)NC(=O)[C@@H]([C@@H](C)CC)NC(=O)[C@H](NC(=O)[C@H](NC(=O)[C@H](CCCN)NC(=O)[C@H]2CCCN2C(=O)[C@H](NC(=O)[C@@H](NC(=O)[C@@H](NC(=O)[C@@H](NC(=O)CCCC(C)C)C(C)C)[C@@H](C)O)C(C)C)C(C)C)[C@@H](C)CC)[C@@H](C)OC(=O)[C@H](C(C)C)NC1=O [Compound 38, [Val^13]-KF]	3.53

From here, focus on the item given below.
q: What value of LC50 (concentration causing 50% net cell killing) has been reported for the following compound? C/C=C1\NC(=O)[C@H](Cc2ccccc2)NC(=O)[C@@H](C(C)C)NC(=O)[C@@H]([C@@H](C)CC)NC(=O)[C@H](NC(=O)[C@H](NC(=O)[C@H](CCCN)NC(=O)[C@H]2CCCN2C(=O)[C@H](NC(=O)[C@H](CCC(N)=O)NC(=O)[C@@H](NC(=O)[C@H](NC(=O)CCCC(C)C)C(C)C)[C@@H](C)O)C(C)C)[C@@H](C)CC)[C@@H](C)OC(=O)[C@H](C(C)C)NC1=O [Compound 48, [Gln^11]-KF] ({Hexanoyl(5-Me)}-[dV]TQ[dV][dP][Orn][d(aIle)][d(aThr)][d(aIle)][dV]F[Dhb]V; ester 8-C)
a: 6.64

###

# System: LNCaP
# Test: SRB colorimetric assay of cell growth and viability, LNCaP
# Assay type: cell-based, human
# Condition Parameters: 48 hours exposure, SRB
Measured Metric: TGI LN-caP (Molar)
The reply should be a number in Molar, with the unit left off.

C/C=C1\NC(=O)[C@H](Cc2ccc(F)cc2)NC(=O)[C@@H](C(C)C)NC(=O)[C@@H]([C@@H](C)CC)NC(=O)[C@H](NC(=O)[C@H](NC(=O)[C@H](CCCN)NC(=O)[C@H]2CCCN2C(=O)[C@H](NC(=O)[C@@H](NC(=O)[C@@H](NC(=O)[C@H](NC(=O)CC[C@@H](C)CC)C(C)C)[C@@H](C)O)C(C)C)C(C)C)[C@@H](C)CC)[C@@H](C)OC(=O)[C@H](C(C)C)NC1=O [Compound 74, [Phe(4-F)^3, (4S)-MeHex^14]-KF]	1.02E−06

q: Under LNCaP: TGI LN-caP value of C/C=C1\NC(=O)[C@H](Cc2ccccc2)NC(=O)[C@@H](C(C)C)NC(=O)[C@@H]([C@@H](C)CC)NC(=O)[C@H](NC(=O)[C@H](NC(=O)[C@H](CCCN)NC(=O)[C@H]2CCCN2C(=O)[C@H](NC(=O)[C@@H](NC(=O)[C@@H](NC(=O)[C@H](NC(=O)CC[C@@H](C)CC)C(C)C)[C@@H](C)OC(=O)C(F)(F)F)C(C)C)C(C)C)[C@@H](C)CC)[C@@H](C)OC(=O)[C@H](C(C)C)NC1=O [Compound 94] ?
a: 4.92E−06

q: Next up: C/C=C1\NC(=O)[C@H](Cc2ccc(Cl)c(Cl)c2)NC(=O)[C@@H](C(C)C)NC(=O)[C@@H]([C@@H](C)CC)NC(=O)[C@H](NC(=O)[C@H](NC(=O)[C@H](CCCN)NC(=O)[C@H]2CCCN2C(=O)[C@H](NC(=O)[C@@H](NC(=O)[C@@H](NC(=O)[C@H](NC(=O)CC[C@@H](C)CC)C(C)C)[C@@H](C)O)C(C)C)C(C)C)[C@@H](C)CC)[C@@H](C)OC(=O)[C@H](C(C)C)NC1=O [Compound 70, [Phe(3,4-Cl2)^3, (4S)-MeHex^14]-KF]
a: 2.08E−07

These data points were gathered from patent US20070117743A1.
